This listing pairs compounds with measured AC50.
molecular target: APOL1 G2 (Homo sapiens, UniProt O14791, DEL388-389); construct: expressed in transfected cells; host or cells: HEK293 T-REx clonal lines: HEK T-REx/GCaMP6f/APOL1 G2 K6.3 in A1, HEK293/T-REx APOL1 G2/clone #2 in A2; test: APOL1 calcium transport inhibition assay (GCaMP6f calcium influx, FLIPR) in HEK T-REx/GCaMP6f/APOL1 G2 K6.3 cells; assay type: cell-based; settings: inhibition of APOL1-mediated calcium influx; geometric mean of at least 2 assay runs, † = single assay run (technical duplicate)
Sequence (O14791 with tags, fused parts or gaps DEL388-389): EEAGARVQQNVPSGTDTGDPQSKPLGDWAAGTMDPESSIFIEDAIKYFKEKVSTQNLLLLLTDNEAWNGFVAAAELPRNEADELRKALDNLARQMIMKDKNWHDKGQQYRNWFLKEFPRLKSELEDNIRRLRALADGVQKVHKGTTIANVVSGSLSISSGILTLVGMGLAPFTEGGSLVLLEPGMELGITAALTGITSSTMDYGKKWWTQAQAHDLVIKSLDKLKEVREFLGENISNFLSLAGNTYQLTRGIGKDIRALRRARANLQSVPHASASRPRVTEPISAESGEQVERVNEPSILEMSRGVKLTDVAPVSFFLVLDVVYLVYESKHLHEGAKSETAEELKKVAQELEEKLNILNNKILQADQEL
measured.metric: AC50 (nM)

[[record]]
compound = "C[C@@H]1CN(CCc2cccc(Cl)c2)C[C@@H]1COc1ccc(S(C)(=O)=O)cc1 (racemic) [Compound 150]"
measured_metric = "AC50"
value_unit = "nM"
readout_qualifier = "="
measurement = 721

[[record]]
compound = "CN(c1ccc(OC[C@H](O)CNCCc2cccc(Cl)c2)cc1)S(C)(=O)=O [Compound 87]"
measured_metric = "AC50"
value_unit = "nM"
readout_qualifier = "="
measurement = 352

[[record]]
compound = "CN(c1ccc(OCC2CCCN(CCc3cccc(Cl)c3)C2)cc1)S(C)(=O)=O (stereo not shown) [Compound 7]"
measured_metric = "AC50"
value_unit = "nM"
readout_qualifier = "<"
measurement = 253

[[record]]
compound = "CS(=O)(=O)c1ccc(OC[C@@H](O)CN[C@H]2C[C@H](c3cccc(Cl)c3)C2)cc1 [Compound 66]"
measured_metric = "AC50"
value_unit = "nM"
readout_qualifier = "="
measurement = 468

